Test: LDH release cytotoxicity assay
Format: cell-based
Condition Summary: human, U937 cells
# key: entry, value: inhibition at 4 h, 100 µM
Recorded Endpoint: inhibition at 4 h, 100 µM (%)

[[record]]
molecule = "COC(=O)COc1ccc(NC(=O)C2(c3ccc(F)cc3)CC2)c(C)c1 [Compound 8k]"
recorded_endpoint = "inhibition at 4 h, 100 µM"
numeric_value = 4

[[record]]
molecule = "COC(=O)COc1cccc(NC(=O)C2(c3ccc(OC)cc3)CC2)c1 [Compound 8h]"
recorded_endpoint = "inhibition at 4 h, 100 µM"
numeric_value = -2

[[record]]
molecule = "COC(=O)COc1cccc(NC(=O)C2(c3cccc(C)c3)CC2)c1 [Compound 8e]"
recorded_endpoint = "inhibition at 4 h, 100 µM"
numeric_value = -1

[[record]]
molecule = "COC(=O)COc1cccc(NC(=O)C2(c3ccc(Cl)cc3)CC2)c1 [Compound 8l]"
recorded_endpoint = "inhibition at 4 h, 100 µM"
numeric_value = 2

[[record]]
molecule = "COC(=O)COc1cccc(NC(=O)C2(c3ccccc3)CC2)c1 [Compound 8a]"
recorded_endpoint = "inhibition at 4 h, 100 µM"
numeric_value = 1

[[record]]
molecule = "COC(=O)COc1ccc(NC(=O)C2(c3cccc(C)c3)CC2)c(C)c1 [Compound 8g]"
recorded_endpoint = "inhibition at 4 h, 100 µM"
numeric_value = 0

[[record]]
molecule = "COC(=O)COc1ccc(NC(=O)C2(c3ccc(Cl)c(Cl)c3)CC2)cc1 [Compound 8s]"
recorded_endpoint = "inhibition at 4 h, 100 µM"
numeric_value = 0

[[record]]
molecule = "COC(=O)COc1ccc(NC(=O)C2(c3cccc(Br)c3)CC2)c(C)c1 [Compound 8r]"
recorded_endpoint = "inhibition at 4 h, 100 µM"
numeric_value = -2

[[record]]
molecule = "COC(=O)COc1cccc(NC(=O)C2(c3cccc(Br)c3)CC2)c1 [Compound 8p]"
recorded_endpoint = "inhibition at 4 h, 100 µM"
numeric_value = 0


---

# key: entry, value: inhibition at 4 h, 25 µM
Test: LDH release cytotoxicity assay
Format: cell-based
Condition Summary: human, U937 cells
Recorded Endpoint: inhibition at 4 h, 25 µM (%)

[[record]]
smiles_representation = "COC(=O)COc1ccc(NC(=O)C2(c3ccc(Cl)cc3)CC2)c(C)c1"
unit_label = "%"
numeric_value = -1

[[record]]
smiles_representation = "COC(=O)COc1ccc(NC(=O)C2(c3ccc(Cl)cc3)CC2)cc1Br"
unit_label = "%"
numeric_value = -2

[[record]]
smiles_representation = "COC(=O)COc1ccc(NC(=O)C2(c3ccc(Cl)c(Cl)c3)CC2)cc1"
unit_label = "%"
numeric_value = 0

[[record]]
smiles_representation = "COC(=O)COc1ccc(NC(=O)C2(c3cccc(Br)c3)CC2)c(C)c1"
unit_label = "%"
numeric_value = -1

[[record]]
smiles_representation = "COC(=O)COc1ccc(NC(=O)C2(c3ccc(F)cc3)CC2)cc1"
unit_label = "%"
numeric_value = -1

[[record]]
smiles_representation = "COC(=O)COc1cccc(NC(=O)C2(c3cccc(Br)c3)CC2)c1"
unit_label = "%"
numeric_value = -1

[[record]]
smiles_representation = "COC(=O)COc1ccc(NC(=O)C2(c3ccc(OC)cc3)CC2)cc1"
unit_label = "%"
numeric_value = 0

[[record]]
smiles_representation = "COC(=O)COc1cccc(NC(=O)C2(c3ccc(Cl)cc3)CC2)c1"
unit_label = "%"
numeric_value = -1

[[record]]
smiles_representation = "COC(=O)COc1cccc(NC(=O)C2(c3ccc(OC)cc3)CC2)c1"
unit_label = "%"
numeric_value = 3

[[record]]
smiles_representation = "COC(=O)COc1cccc(NC(=O)C2(c3ccccc3)CC2)c1"
unit_label = "%"
numeric_value = 2

[[record]]
smiles_representation = "COC(=O)COc1cccc(NC(=O)C2(c3cccc(C)c3)CC2)c1"
unit_label = "%"
numeric_value = -4

[[record]]
smiles_representation = "COC(=O)COc1ccc(NC(=O)C2(c3cccc(C)c3)CC2)c(C)c1"
unit_label = "%"
numeric_value = 0

[[record]]
smiles_representation = "COC(=O)COc1ccc(NC(=O)C2(c3ccc(F)cc3)CC2)c(C)c1"
unit_label = "%"
numeric_value = 0

[[record]]
smiles_representation = "COC(=O)COc1ccc(NC(=O)C2(c3ccccc3)CC2)cc1"
unit_label = "%"
numeric_value = -3

[[record]]
smiles_representation = "COC(=O)COc1ccc(NC(=O)C2(c3ccccc3)CC2)c(C)c1"
unit_label = "%"
numeric_value = -1

[[record]]
smiles_representation = "COC(=O)COc1ccc(NC(=O)C2(c3cccc(C)c3)CC2)cc1"
unit_label = "%"
numeric_value = -1

[[record]]
smiles_representation = "COC(=O)COc1ccc(NC(=O)C2(c3ccccc3)CC2)cc1Br"
unit_label = "%"
numeric_value = 0

[[record]]
smiles_representation = "COC(=O)COc1ccc(NC(=O)C2(c3ccc(Cl)cc3)CC2)cc1"
unit_label = "%"
numeric_value = 1


Hello, the source for this data is paper PMC9898299, in case you need it.
